EXPERIMENT_SUMMARY: Bidirectional transport experiments in the Caco-2 cell culture model
Assay type: in vitro ADME
CONDITION_DESCRIPTION: human, pH 7.4; Caco-2 monolayer; read-out: ratio of PB–A to PA–B (Papp basolateral to apical / apical to basolateral)
OBSERVATION_TYPE: efflux ratio at 180 min

>  <SMI>
O=C(/C=C/c1ccc(O)c(O)c1/C=C/c1ccc(O)c(O)c1)O[C@H](Cc1ccc(O)c(O)c1)C(=O)O

>  <DATA_VALUE>
~3

$$$$

* * *

EXPERIMENT_SUMMARY: Pharmacokinetic study in vivo (plasma, LC–MS, noncompartmental)
CONDITION_DESCRIPTION: both sexes, Sprague-Dawley, rat, rats, oral 10 mg/kg, single dose
OBSERVATION_TYPE: AUC(0-t)

>  <SMI>
O=C(/C=C/c1ccc(O)c(O)c1/C=C/c1ccc(O)c(O)c1)O[C@H](Cc1ccc(O)c(O)c1)C(=O)O

>  <OBSERVATION_TYPE>
AUC(0-t)

>  <DATA_VALUE>
167 ng·h/mL

$$$$

* * *

EXPERIMENT_SUMMARY: Bidirectional transport experiments in the Caco-2 cell culture model
Format: in vitro ADME
CONDITION_DESCRIPTION: human, Caco-2, pH 7.4, Sal A 10^–4/9 mol/L, VC 10^–3/3 mol/L; read-out: Papp Apical → basolateral
Procedure: Caco-2 cells (passage number 34–36, American Type Culture Collection, Manassas, VA) were cultured at 37 °C in an atmosphere of 5% CO2 and 90% relative humidity in Dulbecco’s modified Eagle’s medium supplemented with 10% fetal bovine serum, 1% penicillin–streptomycin, 1% HEPES, 1% sodium pyruvate and 1% minimal essential medium nonessential amino acids. […] Cell monolayers were ready for experiments from 20 to 24 days postseeding. […]

>  <COMPOUND>
O=C(/C=C/c1ccc(O)c(O)c1/C=C/c1ccc(O)c(O)c1)O[C@H](Cc1ccc(O)c(O)c1)C(=O)O [Sal A, Salvianolic acid A]

>  <READOUT_UNIT>
×10⁻⁶ cm/s

>  <Papp A→B at 180 min>
0.155

$$$$

* * *

EXPERIMENT_SUMMARY: Pharmacokinetic study in vivo (plasma, LC–MS, noncompartmental)
CONDITION_DESCRIPTION: both sexes, Sprague-Dawley, rat, iv, 50 ug/kg, rats, i.v. 50 µg/kg, single dose

>  <COMPOUND>
O=C(/C=C/c1ccc(O)c(O)c1/C=C/c1ccc(O)c(O)c1)O[C@H](Cc1ccc(O)c(O)c1)C(=O)O [Sal A, Salvianolic acid A]

>  <AUC(0-t), ng·h/mL>
205

$$$$

* * *

EXPERIMENT_SUMMARY: Pharmacokinetic study in vivo (plasma, LC–MS, noncompartmental)
CONDITION_DESCRIPTION: both sexes, Sprague-Dawley, rat, po, 10 mg/kg, rats, oral 10 mg/kg, read-out: t1/2 (converted)
OBSERVATION_TYPE: half-life (min)

>  <SMI>
O=C(/C=C/c1ccc(O)c(O)c1/C=C/c1ccc(O)c(O)c1)O[C@H](Cc1ccc(O)c(O)c1)C(=O)O

>  <READOUT_UNIT>
min

>  <DATA_VALUE>
103

$$$$

* * *

EXPERIMENT_SUMMARY: Pharmacokinetic study in vivo (plasma, LC–MS, noncompartmental)
CONDITION_DESCRIPTION: both sexes, Sprague-Dawley, rat, iv, 50 ug/kg, rats, i.v. 50 µg/kg, read-out: t1/2 (converted)
OBSERVATION_TYPE: half-life (h)

>  <MOLECULE>
O=C(/C=C/c1ccc(O)c(O)c1/C=C/c1ccc(O)c(O)c1)O[C@H](Cc1ccc(O)c(O)c1)C(=O)O [Sal A, Salvianolic acid A]

>  <DATA_VALUE>
6.16

$$$$

* * *

EXPERIMENT_SUMMARY: Bidirectional transport experiments in the Caco-2 cell culture model
Format: in vitro ADME
CONDITION_DESCRIPTION: human, Caco-2, pH 7.4, Sal A 10^–4/9 mol/L, HBSS pH 7.4, VC 10^–4 mol/L; read-out: Papp Apical → basolateral

>  <COMPOUND>
O=C(/C=C/c1ccc(O)c(O)c1/C=C/c1ccc(O)c(O)c1)O[C@H](Cc1ccc(O)c(O)c1)C(=O)O [Sal A, Salvianolic acid A]

>  <Papp A→B at 180 min / ×10⁻⁶ cm/s>
0.152

$$$$

* * *

EXPERIMENT_SUMMARY: Pharmacokinetic study in vivo (plasma, LC–MS, noncompartmental)
CONDITION_DESCRIPTION: both sexes, Sprague-Dawley, rat, rats, oral 5 mg/kg, read-out: MRT0–t
Method: Ninety-six healthy, intact Sprague-Dawley rats (male/female, 1/1, 185-215 g, Certificate No. SCXK 2006-0009) were purchased from Vital River Laboratories (Beijing, China). […] The doses applied in this study were determined according to, on the one hand, the doses applied in pharmacodynamic experiments in rats (Yang et al. [2011a]; Yang et al. [2011b]; Yu et al. [2012]; Hou et al. [2017]), and on the other hand, the results of our preliminary absorption experiments. […]

>  <SMI>
O=C(/C=C/c1ccc(O)c(O)c1/C=C/c1ccc(O)c(O)c1)O[C@H](Cc1ccc(O)c(O)c1)C(=O)O

>  <READOUT_UNIT>
h

>  <MRT last>
2.91

$$$$

* * *

EXPERIMENT_SUMMARY: Bidirectional transport experiments in the Caco-2 cell culture model
Format: in vitro ADME
CONDITION_DESCRIPTION: human, Caco-2, pH 7.4, Sal A 10^–4/9 mol/L, VC 10^–3/3 mol/L; read-out: Papp Basolateral → apical
OBSERVATION_TYPE: Papp B→A at 180 min

>  <COMPOUND>
O=C(/C=C/c1ccc(O)c(O)c1/C=C/c1ccc(O)c(O)c1)O[C@H](Cc1ccc(O)c(O)c1)C(=O)O [Sal A, Salvianolic acid A]

>  <OBSERVATION_TYPE>
Papp B→A at 180 min

>  <DATA_VALUE>
0.507 ×10⁻⁶ cm/s

$$$$

* * *

EXPERIMENT_SUMMARY: Pharmacokinetic study in vivo (plasma, LC–MS, noncompartmental)
CONDITION_DESCRIPTION: both sexes, Sprague-Dawley, rat, po, 20 mg/kg, rats, oral 20 mg/kg vs i.v. 50 µg/kg, read-out: F (oral bioavailability)
OBSERVATION_TYPE: bioavailability (%)

>  <MOLECULE>
O=C(/C=C/c1ccc(O)c(O)c1/C=C/c1ccc(O)c(O)c1)O[C@H](Cc1ccc(O)c(O)c1)C(=O)O [Sal A, Salvianolic acid A]

>  <READOUT_UNIT>
%

>  <DATA_VALUE>
0.39

$$$$

* * *

EXPERIMENT_SUMMARY: Pharmacokinetic study in vivo (plasma, LC–MS, noncompartmental)
CONDITION_DESCRIPTION: both sexes, Sprague-Dawley, rat, po, 20 mg/kg, rats, oral 20 mg/kg, read-out: Tmax

>  <SMI>
O=C(/C=C/c1ccc(O)c(O)c1/C=C/c1ccc(O)c(O)c1)O[C@H](Cc1ccc(O)c(O)c1)C(=O)O

>  <Tmax>
1 h

$$$$

* * *

EXPERIMENT_SUMMARY: Bidirectional transport experiments in the Caco-2 cell culture model
Assay type: in vitro ADME
CONDITION_DESCRIPTION: human, Caco-2, pH 7.4, Sal A 10^–4/9 mol/L, HBSS pH 7.4, VC 10^–4 mol/L; read-out: Papp Basolateral → apical
OBSERVATION_TYPE: Papp B→A at 180 min (×10⁻⁶ cm/s)

>  <SMI>
O=C(/C=C/c1ccc(O)c(O)c1/C=C/c1ccc(O)c(O)c1)O[C@H](Cc1ccc(O)c(O)c1)C(=O)O

>  <DATA_VALUE>
0.605

$$$$

* * *

EXPERIMENT_SUMMARY: Pharmacokinetic study in vivo (plasma, LC–MS, noncompartmental)
CONDITION_DESCRIPTION: both sexes, Sprague-Dawley, rat, iv, 50 ug/kg, rats, i.v. 50 µg/kg, single dose
Procedure: Ninety-six healthy, intact Sprague-Dawley rats (male/female, 1/1, 185-215 g, Certificate No. SCXK 2006-0009) were purchased from Vital River Laboratories (Beijing, China). […] The doses applied in this study were determined according to, on the one hand, the doses applied in pharmacodynamic experiments in rats (Yang et al. [2011a]; Yang et al. [2011b]; Yu et al. [2012]; Hou et al. [2017]), and on the other hand, the results of our preliminary absorption experiments. […]

>  <SMI>
O=C(/C=C/c1ccc(O)c(O)c1/C=C/c1ccc(O)c(O)c1)O[C@H](Cc1ccc(O)c(O)c1)C(=O)O

>  <READOUT_UNIT>
ng/mL

>  <Cmax>
579

$$$$

* * *

EXPERIMENT_SUMMARY: Bidirectional transport experiments in the Caco-2 cell culture model
Type: in vitro ADME
CONDITION_DESCRIPTION: human, Caco-2, pH 7.4, Sal A 10^–4/9 mol/L, VC 10^–3 mol/L; read-out: Papp Apical → basolateral

>  <SMI>
O=C(/C=C/c1ccc(O)c(O)c1/C=C/c1ccc(O)c(O)c1)O[C@H](Cc1ccc(O)c(O)c1)C(=O)O

>  <Papp A→B at 180 min, ×10⁻⁶ cm/s>
0.153

$$$$
